molecular target: BACE1 (Homo sapiens, UniProt P56817); construct: endogenous in cells; assay: Cellular Aβ-lowering assay (Abeta 40 AlphaLISA, HEK293 APP cells); settings: 18-20 hrs incubation, Aβ40 in culture supernatant, read-out: BACE1 cell act. Aβ40 IC50
Sequence (P56817 46-501): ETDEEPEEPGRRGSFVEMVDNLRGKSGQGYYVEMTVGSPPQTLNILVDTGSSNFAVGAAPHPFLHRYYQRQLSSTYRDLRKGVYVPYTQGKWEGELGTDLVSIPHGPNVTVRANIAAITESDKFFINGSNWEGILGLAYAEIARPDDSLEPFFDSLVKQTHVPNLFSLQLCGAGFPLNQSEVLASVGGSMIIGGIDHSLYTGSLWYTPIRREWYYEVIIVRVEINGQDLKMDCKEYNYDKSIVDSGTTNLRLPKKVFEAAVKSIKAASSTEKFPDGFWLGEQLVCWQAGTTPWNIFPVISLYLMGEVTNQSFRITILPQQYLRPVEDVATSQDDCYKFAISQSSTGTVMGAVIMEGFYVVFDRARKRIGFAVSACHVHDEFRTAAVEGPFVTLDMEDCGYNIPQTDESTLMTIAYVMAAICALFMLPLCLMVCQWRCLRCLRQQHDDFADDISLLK
Measured Attribute: IC50 (nM)

Cc1cc(C#N)cnc1C(=O)Nc1ccc(F)c(C2(C)CS3(=O)=NCCCC3(C)C(N)=N2)n1 (single isomer, unassigned) [Example 10] = 2.9
Cc1cc(C#N)cnc1C(=O)Nc1ccc(F)c(C2(CF)CS3(=O)=NCCCC3(C)C(N)=N2)n1 (single isomer, unassigned) [Example 9] = 98
CC1(c2nc(NC(=O)c3ncc(C#N)cc3Cl)ccc2F)CS2(=O)=NCCCC2(C)C(N)=N1 (single isomer, unassigned) = 2.3

1 = CC1(c2nc(NC(=O)c3ccc(OCC(F)(F)C(F)F)cn3)ccc2F)CS2(=O)=NCCCC2(C)C(N)=N1 (single isomer, unassigned)
2 = Cc1cc(C#N)cnc1C(=O)Nc1ccc(F)c(C2(CF)CS3(=O)=NCCCC3(C)C(N)=N2)n1 (single isomer, unassigned) [Example 6]
Query block: Field: lower IC50 | Options: 1 / 2 Your answer should be the label of the entry you select.
Result block: 2

###

target: BACE1 (Homo sapiens, UniProt P56817); construct: endogenous in cells; assay: Cellular Aβ-lowering assay (Abeta 40 AlphaLISA, HEK293 APP cells); settings: 18-20 hrs incubation, Aβ40 in culture supernatant, read-out: BACE1 cell act. Aβ40 IC50
Measured Attribute: IC50 (nM)

Example entries and their recorded answers appear below.
Cc1cc(C#N)cnc1C(=O)Nc1ccc(F)c(C2(C)CS3(=O)=NCCCCC3(C)C(N)=N2)n1 (single isomer, unassigned) [Example 3] = 13.8
Cc1cc(C#N)cnc1C(=O)Nc1ccc(F)c(C2(C)CS3(=O)=NCCCCC3(C)C(N)=N2)n1 (single isomer, unassigned) [Example 2] = 0.2

1 = Cc1cc(C#N)cnc1C(=O)Nc1ccc(F)c(C2(C)CS3(=O)=NCCCC3(C)C(N)=N2)n1 (single isomer, unassigned) [Example 1]
2 = Cc1cc(C#N)cnc1C(=O)Nc1ccc(F)c(C2(C)CS3(=O)=NCCCCC3(C)C(N)=N2)n1 (single isomer, unassigned) [Example 4]
3 = Cc1cc(C#N)cnc1C(=O)Nc1ccc(F)c(C2(CF)CS3(=O)=NCCCC3(C)C(N)=N2)n1 (single isomer, unassigned) [Example 5]
Query block: # desc sort on IC50 across 3 compounds Give your ranking as a list of the labels in the requested order.
Result block: 3, 2, 1
(3: 0.8 nM, 2: 0.4 nM, 1: 0.2 nM)
